Source: the supplement of paper PMC9112550

Documented shrunken log2 fold change across a set of sequences
tested on: Escherichia coli TOP10; assay: shrunken log2 fold change of peptide-encoding DNA abundance (4.5 h post-induction vs induction); higher = less antimicrobial activity (less host growth inhibition); settings: time post-induction: 4.5 h; library: site-saturation at positions 5, 18, 19, 20
Measure Name: shrunken log2 fold change

>>> numeric_readout("RRIRWRPPRLPRPRPRPSYGPRP")
-0.503
>>> numeric_readout("RRIRERPPRLPRPRPRPIHEPRP")
0.0218
>>> numeric_readout("RRIRFRPPRLPRPRPRPPCQPRP")
3.46
>>> numeric_readout("RRIRARPPRLPRPRPRPQIWPRP")
0.166
>>> numeric_readout("RRIRYRPPRLPRPRPRPIYRPRP")
-0.641
>>> numeric_readout("RRIRERPPRLPRPRPRPQGYPRP")
0.0039
>>> numeric_readout("RRIRPRPPRLPRPRPRPTDRPRP")
0.121
>>> numeric_readout("RRIRYRPPRLPRPRPRPTMVPRP")
-0.269
>>> numeric_readout("RRIRVRPPRLPRPRPRPEHMPRP")
-0.0512
>>> numeric_readout("RRIRHRPPRLPRPRPRPHTIPRP")
-0.0571
>>> numeric_readout("RRIRHRPPRLPRPRPRPPVYPRP")
0.118
>>> numeric_readout("RRIRIRPPRLPRPRPRPCCCPRP")
-0.641
>>> numeric_readout("RRIRLRPPRLPRPRPRPVLLPRP")
0.0821
>>> numeric_readout("RRIRHRPPRLPRPRPRPTTHPRP")
0.0467
>>> numeric_readout("RRIRGRPPRLPRPRPRPAFCPRP")
0.731

----------
Documented shrunken log2 fold change across a set of sequences
test system: Escherichia coli TOP10; test: shrunken log2 fold change of peptide-encoding DNA abundance (4.5 h post-induction vs induction); higher = less antimicrobial activity (less host growth inhibition); settings: time post-induction: 4.5 h; library: site-saturation at positions 5, 18, 19, 20;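 further: peptides expressed intracellularly from a pBAD plasmid library in pooled LB shake-flask culture, induced with 0.3% L-arabinose, DNA abundance read by NGS, three biological replicates, DESeq2 with apeglm shrinkage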
Measure Name: shrunken log2 fold change

>>> result("RRIRQRPPRLPRPRPRPQQDPRP")
0.206
>>> result("RRIRDRPPRLPRPRPRPVSSPRP")
-0.0849
>>> result("RRIRPRPPRLPRPRPRPGVVPRP")
0.215
>>> result("RRIRERPPRLPRPRPRPPNFPRP")
-0.329
>>> result("RRIRTRPPRLPRPRPRPHRRPRP")
0.0892
>>> result("RRIRGRPPRLPRPRPRPKCRPRP")
0.299
>>> result("RRIRPRPPRLPRPRPRPIHKPRP")
-0.561
>>> result("RRIRSRPPRLPRPRPRPLLTPRP")
0.085
>>> result("RRIRQRPPRLPRPRPRPPEDPRP")
0.0255
>>> result("RRIRIRPPRLPRPRPRPMRIPRP")
-0.0754
>>> result("RRIRLRPPRLPRPRPRPTMHPRP")
0.0766
>>> result("RRIRHRPPRLPRPRPRPKHHPRP")
-0.493
>>> result("RRIRNRPPRLPRPRPRPCDAPRP")
-0.195
>>> result("RRIRQRPPRLPRPRPRPDELPRP")
-0.0583
>>> result("RRIRKRPPRLPRPRPRPQDSPRP")
-0.017
>>> result("RRIRMRPPRLPRPRPRPPLPPRP")
0.879
>>> result("RRIRWRPPRLPRPRPRPNHEPRP")
-0.197
>>> result("RRIRTRPPRLPRPRPRPTEIPRP")
-0.119
>>> result("RRIRFRPPRLPRPRPRPAYLPRP")
-0.649
>>> result("RRIRSRPPRLPRPRPRPRVTPRP")
0.169
>>> result("RRIRWRPPRLPRPRPRPPRMPRP")
0.348
>>> result("RRIRDRPPRLPRPRPRPKGQPRP")
0.116
>>> result("RRIRPRPPRLPRPRPRPTHVPRP")
0.317
>>> result("RRIRIRPPRLPRPRPRPIMAPRP")
-0.286
>>> result("RRIRKRPPRLPRPRPRPLCTPRP")
0.179
>>> result("RRIRDRPPRLPRPRPRPATNPRP")
0.0922
>>> result("RRIRMRPPRLPRPRPRPWNTPRP")
0.000609
>>> result("RRIRARPPRLPRPRPRPSFFPRP")
0.238
>>> result("RRIRTRPPRLPRPRPRPPYEPRP")
0.0319
>>> result("RRIRLRPPRLPRPRPRPDWKPRP")
0.0269
>>> result("RRIRNRPPRLPRPRPRPEDTPRP")
-0.0307
>>> result("RRIRNRPPRLPRPRPRPGVNPRP")
0.0306
